ASSAY: NCI Yeast Anticancer Drug Screen. Data for the mlh1 rad18 strain (AID 175)
STATED_CONDITIONS: S. cerevisiae mlh1 rad18 strain growth inhibition; at 50.0 µM (retest, dose inferred, filed as 5.0); active compounds read high
The panel holds about 79,000 compounds, 15% with a hit somewhere; the sample as a whole holds those more often.
# growth inhibition annotations

COMPOUND	growth inhibition [%]
O=c1[nH]c2ccc([N+](=O)[O-])cc2c2ccc(Cl)cc12	40
O=c1sc(=S)[nH]c2ccccc12	31
C(=Nc1ccccc1)c1cn(Cc2ccccc2)c2ccccc12	97
CCC1(C)OC(=O)C(c2ccccc2)O1 (stereo not drawn)	-5
Cc1cc2c(cc1O)CC[C@@H]1[C@@H]2CC[C@]2(C)[C@@H](O)CC[C@@H]12	-22
O=C1CSC(c2c[nH]c3ccccc23)N1c1cccc(Cl)c1 (stereo not drawn)	97
CC1=C(Br)S(=O)(=O)N(c2ccccc2)C(CBr)=C1Br	93
N#C/C(=C\c1cc(Cl)cc(Cl)c1O)C(/C(C#N)=C/c1cc(Cl)cc(Cl)c1O)c1ccc2c(c1)OCO2 (stereo not drawn)	99
COC(=O)C1(OC(=O)CCC(=O)O)C(=O)NC2=C1C(=O)c1ccccc1C2=O (stereo not drawn)	17
CC(C)SC(=S)Nc1cc(Cl)c(Cl)cc1Cl	92
COc1ccc(C(=O)NCCN2CCN3Cc4[nH]c5ccccc5c4CC3C2)cc1 (stereo not drawn)	-3
O=C1CCCC1CN1CCOCC1 (stereo not drawn)	99
CN1C(C)(C)CC(O)(C#N)CC1(C)C	99

###

ASSAY: NCI Yeast Anticancer Drug Screen. Data for the mlh1 rad18 strain (AID 175)
STATED_CONDITIONS: S. cerevisiae mlh1 rad18 strain growth inhibition; at 50.0 µM (retest, dose inferred, filed as 5.0); active compounds read high
The panel holds about 79,000 compounds, 15% with a hit somewhere; the sample as a whole holds those more often.
# growth inhibition annotations

MOLECULE	growth inhibition, %
Cc1nc2[nH]cc(C)c2c(=O)[nH]1	-14
CC(=O)C1CCCCC1/C=C/[N+](=O)[O-] (stereo not drawn)	97
Cc1c2ncccc2cc2oc3ccccc3c(=O)c12	10
C(CCCCCN1CCCCC1)CCCCN1CCCCC1	10
Nc1nc(N)c2nc(Sc3ccc(F)cc3)c(N)nc2n1	58
O=C(NNc1ccccc1)c1ccccc1Cl	97
CC[C@H]1CN2CCc3cc(OC)c(OC)cc3[C@@H]2C[C@@H]1C[C@H]1NCCc2cc(OC)c(OC)cc21	3
CN(C)CCNC(=O)C(c1ccccc1)c1ccccc1	11
O=C1COCC(=O)OCCOCCSCCOCCO1	15
Cc1cc(=O)[nH]c2cc3oc4ccccc4c3cc12	80
COc1cccc(/C=C(\NC(=O)c2ccccc2)c2nc3ccccc3s2)c1	96
CCC(C)(C)c1cc(Br)c(NS(=O)(=O)c2ccc(NC(C)=O)cc2)c(Br)c1	42
C=C(C)COc1ccccc1C(OCC)OCC	39
CC(=O)Nc1ccc(-c2nnc(SCC(=O)Nc3ccc([N+](=O)[O-])cc3)o2)cc1	74
N#CC1Sc2ccccc2N1C(=O)c1ccccc1 (stereo not drawn)	-5
CC1(C(=O)O)CCC2(C)CCC3(C)C(=CC(=O)C4C5(C)CCC(O)C(C)(C)C5CCC43C)C2C1 (stereo not drawn)	80
Cc1cc(C(=O)O)c(C)c2c1sc1ccccc12	81
CCCCN1CSC(=S)N(Cc2ccccc2)C1	38
O=c1cc(CSc2ccc(Cl)cc2)occ1O	51
COC(OC)C1C2C3C=CC(C4C(=O)OC(=O)C34)C12 (stereo not drawn)	2
S=C(N/N=C(/c1ccccc1)c1ccccn1)Nc1ccccc1	94
Cc1ccc(NN)cc1	94
FC(F)(F)c1nc(SCc2ccc(Cl)cc2)n[nH]1	13
CC(=O)O[C@H]1CC[C@@]2(C)C(CC[C@]3(C)C2CC=C2[C@@H]4CC(C)(C)CC[C@]4(C(=O)NCCN(C)C)CCC23C)C1(C)C (stereo partly drawn)	93
Cc1ccc(S(=O)(=O)Oc2ccc(C(C)(C)C)cc2Cl)cc1	0
Cc1c2ccccc2c(C)c2c1cc(F)c1ccccc12	89
COc1ccc(Oc2ccc(C(=O)C(CN(C)C)CN(C)C)cc2)cc1	96
O=C(/C(Cl)=N/O)c1ccccc1	99
